Read-out: Signal transducer and activator of transcription 3 (Homo sapiens) (UniProt P40763)
Sequence (P40763 whole entry, looked up): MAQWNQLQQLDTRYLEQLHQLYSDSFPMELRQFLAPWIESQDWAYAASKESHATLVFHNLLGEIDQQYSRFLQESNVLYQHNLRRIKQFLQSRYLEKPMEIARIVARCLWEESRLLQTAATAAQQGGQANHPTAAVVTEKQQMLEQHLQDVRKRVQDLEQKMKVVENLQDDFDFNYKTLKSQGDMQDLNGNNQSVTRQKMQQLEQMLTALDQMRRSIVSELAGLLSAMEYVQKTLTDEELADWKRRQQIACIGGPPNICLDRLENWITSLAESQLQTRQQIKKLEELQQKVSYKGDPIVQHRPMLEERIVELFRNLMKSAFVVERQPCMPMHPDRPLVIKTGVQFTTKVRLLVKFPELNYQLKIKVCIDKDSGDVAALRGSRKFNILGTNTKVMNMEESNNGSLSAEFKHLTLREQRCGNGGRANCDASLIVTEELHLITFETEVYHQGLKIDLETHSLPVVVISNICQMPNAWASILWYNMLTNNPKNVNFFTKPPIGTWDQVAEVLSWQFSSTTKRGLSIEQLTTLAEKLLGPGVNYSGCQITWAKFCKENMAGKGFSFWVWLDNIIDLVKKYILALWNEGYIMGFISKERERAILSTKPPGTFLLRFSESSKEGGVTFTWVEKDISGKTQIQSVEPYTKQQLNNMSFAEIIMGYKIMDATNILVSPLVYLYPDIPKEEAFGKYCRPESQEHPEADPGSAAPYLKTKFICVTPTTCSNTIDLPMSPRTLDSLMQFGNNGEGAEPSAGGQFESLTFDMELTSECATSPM
Test: LTEA_HepaRG_STAT3: Life Technologies and Expression Analysis (LTEA) Assay for Signal transducer and activator of transcription (STAT3) using HepaRG (AID 2283529)
Details: mRNA level, 48 h; actives raise or lower the signal
Calls of active or inactive are those of the source. How the source made its calls: active means hit-call score of the fitted dose curve at least 0.9, where 1 is the maximum; inactive means score below 0.9.
Outcome (select one): T for active, F for inactive

Worked examples follow.
>  <Molecule>
CC(C)(c1ccccc1)c1ccc(O)c(C(C)(C)c2ccccc2)c1

>  <Classification>
F

$$$$
>  <Molecule>
O=C(Nc1ccc2[nH]ccc2c1)c1cc2cc(F)ccc2n1Cc1cccc(F)c1

>  <Classification>
F

$$$$
>  <Molecule>
C=CC(=O)OCCCCCC(C)C

>  <Classification>
F

$$$$

Ask: What did the test return for C[C@@H]1C[C@@H]([C@H](O)CC2CC(=O)NC(=O)C2)C(=O)[C@@H](C)C1 ?
Result: T

Ask: Per the assay record, what outcome was assigned to CC(C)(C)c1cc(O)ccc1O ?
Result: F

----------
Target: Estrogen receptor (Homo sapiens)
Assay: ATG_ERa_TRANS: Attagene TRANS-FACTORIAL HepG2 Assay for human Estrogen Receptor alpha (ERa) (AID 2282970)
Details: HepG2 Attagene TRANS ERa GAL4 reporter, mRNA
Records with an inconclusive call do not appear. Calls of active or inactive are those of the source. Rule for the calls: active = hit-call score of the fitted dose curve at least 0.9, where 1 is the maximum; inconclusive = response in the unintended direction; inactive = score below 0.9.
Tick one outcome: Yes for active, No for inactive

Consider the worked cases shown below.
>  <Compound>
CCC(=O)c1ccccc1

>  <System name>
Estrogen receptor (Homo sapiens)

>  <Classification>
No

$$$$
>  <Compound>
N#CCc1ccc(Cl)cc1

>  <System name>
Estrogen receptor (Homo sapiens)

>  <Classification>
No

$$$$
>  <Compound>
C[C@H]1O[C@@H](O[C@H]2[C@@H](O)C[C@H](O[C@H]3[C@@H](O)C[C@H](O[C@H]4CC[C@@]5(C)[C@H](CC[C@@H]6[C@@H]5CC[C@]5(C)[C@@H](C7=CC(=O)OC7)CC[C@]65O)C4)O[C@@H]3C)O[C@@H]2C)C[C@H](O)[C@@H]1O

>  <System name>
Estrogen receptor (Homo sapiens)

>  <Classification>
No

$$$$
>  <Compound>
Cn1sc(Cl)cc1=O

>  <System name>
Estrogen receptor (Homo sapiens)

>  <Classification>
No

$$$$
>  <Compound>
COc1ccccc1OC

>  <System name>
Estrogen receptor (Homo sapiens)

>  <Classification>
No

$$$$
>  <Compound>
CCSC(C)CC1CC(=O)C(C(CC)=NOC/C=C/Cl)=C(O)C1 (stereo not given)

>  <System name>
Estrogen receptor (Homo sapiens)

>  <Classification>
No

$$$$

Ask: Can you look up the reported call for CC(C)(c1ccccc1)c1ccc(O)c(C(C)(C)c2ccccc2)c1 for me?
Result: Yes

----------
Read-out: Tissue Factor, F3 (gene 2152)
Assay: BSK_LPS_TissueFactor: BioMAP Diversity Plus: LPS Assay for Tissue Factor Biomarker Activity (AID 2283084)
Conditions: primary human HUVEC with PBMC; actives raise or lower the signal
Procedure: BSK_LPS is a cell-based, multiplexed-readout assay that uses umbilical vein endothelium and peripheral blood mononuclear cells, a human vascular primary cell co-culture, with measurements taken at 24 hours after chemical dosing in a 96-well plate.BSK_LPS_TissueFactor is an assay component measured in the BSK_LPS assay. […] This assay endpoint, BSK_LPS_TissueFactor, was analyzed with bidirectional fitting relative to DMSO as the negative control and baseline of activity. […]
Active and inactive are the calls of the source. How the source made its calls: active means hit-call score of the fitted dose curve at least 0.9, where 1 is the maximum; inactive means score below 0.9.
Test readout: AC50

>  <Compound>
Cc1ccccc1N

>  <AC50>
inactive

$$$$
>  <Compound>
CC(=O)[O][Hg][c]1ccccc1

>  <AC50>
1.99 µM (active)

$$$$
>  <Compound>
CC12CC1(C)C(=O)N(c1cc(Cl)cc(Cl)c1)C2=O (configuration not stated)

>  <AC50>
inactive

$$$$
>  <Compound>
Oc1c(I)cc(I)cc1I

>  <AC50>
inactive

$$$$
>  <Compound>
CC(C)CCCCCCOC(=O)c1ccccc1C(=O)OCCCCCCC(C)C

>  <AC50>
inactive

$$$$

Ask: Report AC50, nothing else, for this compound: CC(C)(C)c1cc(O)ccc1O
Result: 20 µM (active)

Ask: Name the recorded AC50 of the compound listed here: O=[N+]([O-])c1ccc2c3c(cccc13)CC2
Result: inactive

----------
Test: ATG_NRF2_ARE_CIS: Attagene CIS-FACTORIAL HepG2 Assay for human Nuclear Factor Erythroid 2 Related Factor 2 (NFR2) response to Antioxidant Response Elements (ARE) (AID 2282992)
Conditions: HepG2 Attagene ARE/NRF2 reporter, transcription factor activity; actives raise or lower the signal
Procedure: ATG_CIS is a cell-based, multiplexed-readout assay that uses HepG2, a human liver cell line, with measurements taken at 24 hours after chemical dosing in a 24-well plate.ATG_NRF2_ARE_CIS is one of 52 assay component(s) measured or calculated from the ATG_CIS assay. […] This assay endpoint, ATG_NRF2_ARE_CIS, was analyzed with bidirectional fitting relative to DMSO as the negative control and baseline of activity. […]
Activity calls are given as the source filed them. The calls were made as follows: active = hit-call score of the fitted dose curve at least 0.9, where 1 is the maximum; inactive = score below 0.9.
Please state which outcome applies, choosing from 1 = active, 0 = inactive

Completed entries (count: 5):
>  <Compound>
O=CC=O

>  <Classification>
0

$$$$
>  <Compound>
Cl/C=C/Cl

>  <Classification>
0

$$$$
>  <Compound>
Oc1ccc(-c2ccccc2)cc1

>  <Classification>
1

$$$$
>  <Compound>
CCC1(c2ccc(N)cc2)CCC(=O)NC1=O (stereo not drawn)

>  <Classification>
0

$$$$
>  <Compound>
O=[N+]([O-])c1ccc(O)c([N+](=O)[O-])c1

>  <Classification>
0

$$$$

Ask: // outcome(item) with item = CCCCP(CCCC)CCCC
Result: 0

Ask: What did this assay record as the result for C(=NC1CCCCC1)=NC1CCCCC1 ?
Result: 0

Ask: For ClC(Cl)=C(Cl)C(Cl)=C(Cl)Cl , which call appears in the assay record?
Result: 1

----------
Read-out: Urokinase-type plasminogen activator receptor (uPAR), PLAUR (gene 5329)
Assay: BSK_BE3C_uPAR: BioMAP Diversity Plus: BE3C Assay for Urokinase-type plasminogen activator receptor (uPAR) Biomarker Activity (AID 2283039)
Conditions: primary human bronchial epithelial cells; actives raise or lower the signal
Calls of active or inactive are those of the source. How the source made its calls: active means hit-call score of the fitted dose curve at least 0.9, where 1 is the maximum; inactive means score below 0.9.
Choose the fitting class; nothing outside active, inactive is accepted.

>  <Molecule>
O=C1C2(Cl)C3(Cl)C4(Cl)C(Cl)(Cl)C5(Cl)C3(Cl)C1(Cl)C5(Cl)C24Cl (centres undefined)

>  <Classification>
active

$$$$
>  <Molecule>
C(=NC1CCCCC1)=NC1CCCCC1

>  <Classification>
active

$$$$
>  <Molecule>
COc1cc(OC)nc(NC(=O)NS(=O)(=O)c2ncccc2C(=O)N(C)C)n1

>  <Classification>
inactive

$$$$

Switching to the query record.
Ask: // return assay outcome for O=Cc1cccc(Oc2ccccc2)c1
Result: inactive

----------
Target: Nuclear receptor subfamily 1 group I member 2 (Homo sapiens)
Experiment: ATG_PXR_TRANS: Attagene TRANS-FACTORIAL HepG2 Assay for human Pregnane X Receptor (PXR) (AID 2283008)
Results filed as inconclusive are left out. Calls of active or inactive are those of the source. The calls were made as follows: active = hit-call score of the fitted dose curve at least 0.9, where 1 is the maximum; inconclusive = response in the unintended direction; inactive = score below 0.9.
I would appreciate it if you answered using one of these outcomes: active, inactive

These recorded examples may help you get a feel for the data.
>  <Molecule>
COc1cccc(C=O)c1

>  <Classification>
inactive

$$$$
>  <Molecule>
CCCCCCCCCl

>  <Classification>
inactive

$$$$
>  <Molecule>
CCOP(=S)(OCC)SCSP(=S)(OCC)OCC

>  <Classification>
active

$$$$
>  <Molecule>
CNC(=O)O/N=C/C(C)(C)S(C)=O (stereo not given)

>  <Classification>
inactive

$$$$

Ask: Fill in: this test's call for O=C1C(Cl)=C(Cl)C(=O)c2ccccc21 is ___
Result: inactive

----------
Target: human Peripheral-type Benzodiazepine Receptor (PBR), TSPO (gene 706)
Assay: NVS_MP_hPBR: NovaScreen (NVS) Membrane Protein Assay for human Peripheral-type Benzodiazepine Receptor (PBR) (AID 2283331);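 further: hits reduce radioligand binding relative to DMSO baseline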
Results filed as inconclusive are left out. Calls of active or inactive are those of the source. How the source made its calls: active means hit-call score of the fitted dose curve at least 0.9, where 1 is the maximum; inconclusive means response in the unintended direction; inactive means score below 0.9.
Test readout: AC50

See these solved cases before continuing.
>  <Molecule>
Nc1ccc(-c2ccc(N)c(Cl)c2)cc1Cl

>  <AC50>
9.91 µM (active)

$$$$
>  <Molecule>
c1cc[c]([Hg][c]2ccccc2)cc1

>  <AC50>
0.372 µM (active)

$$$$
>  <Molecule>
CC(C)(c1ccc(OCC2CO2)cc1)c1ccc(OCC2CO2)cc1 (configuration not stated)

>  <AC50>
7.73 µM (active)

$$$$
>  <Molecule>
Clc1ccc(COC(Cn2ccnc2)c2ccc(Cl)cc2Cl)cc1 (configuration not stated)

>  <AC50>
1.09 µM (active)

$$$$

Ask: Input COP(=O)(OC)O/C(=C\Cl)c1cc(Cl)c(Cl)cc1Cl , output reported AC50.
Result: 0.401 µM (active)

Ask: Tell me its AC50 given CCOC(=O)/C=C(C)/C=C/C[C@@H](C)CCCC(C)C as the entry.
Result: 33.2 µM (active)

Ask: Tell us which AC50 value is on record for COc1cc(-c2ccc(N)c(OC)c2)ccc1N
Result: 19.4 µM (active)
